Test description: In vivo pharmacokinetic experiment, oral administration
Design: species or system Sprague Dawley rats
Condition summary: male, Sprague-Dawley, rat, plasma; oral administration (3 mg/kg), SD rats
Measurement name: Tmax (h)
State just the number; it will be interpreted in h.

The measured Tmax associated with CC(C)Cc1ccc(-c2nc(-c3ccc(CN4CC(C(=O)O)C4)cc3)no2)cc1 [Compound 1, reference compound] reads 2

The measured Tmax associated with Cc1cc(-c2noc(-c3ccc(CC(C)C)cc3)n2)ccc1CN1CC(C(=O)O)C1 [Compound 5] reads 3.33

The measured Tmax associated with CC(C)Cc1ccc(-c2nc(-c3ccc(CN4CC(C(=O)O)C4)c(F)c3)no2)cc1 [Compound 2] reads 2

The measured Tmax associated with CC(C)Cc1ccc(-c2nc(-c3ccc(CN4CC(C(=O)O)C4)c(Cl)c3)no2)cc1 [Compound 3] reads 3.33

The measured Tmax associated with CC(C)Cc1ccc(-c2nc(-c3ccc(CN4CC(C(=O)O)C4)c(Br)c3)no2)cc1 [Compound 4] reads 1.15

###

Test description: In vivo pharmacokinetic experiment, intravenous administration
Parameters: species or system Sprague Dawley rats
Condition summary: male, Sprague-Dawley, rat, plasma; intravenous administration (1 mg/kg), SD rats; read-out: Vss
Assign Vd to each entry below.
State just the number; it will be interpreted in L/kg.

The measured Vd associated with CC(C)Cc1ccc(-c2nc(-c3ccc(CN4CC(C(=O)O)C4)c(Br)c3)no2)cc1 reads 2.75

The measured Vd associated with CC(C)Cc1ccc(-c2nc(-c3ccc(CN4CC(C(=O)O)C4)cc3)no2)cc1 [Compound 1, reference compound] reads 4.65

The measured Vd associated with Cc1cc(-c2noc(-c3ccc(CC(C)C)cc3)n2)ccc1CN1CC(C(=O)O)C1 reads 5.87

The measured Vd associated with CC(C)Cc1ccc(-c2nc(-c3ccc(CN4CC(C(=O)O)C4)c(F)c3)no2)cc1 reads 3.12

The measured Vd associated with CC(C)Cc1ccc(-c2nc(-c3ccc(CN4CC(C(=O)O)C4)c(Cl)c3)no2)cc1 reads 2.65

###

Test description: In vivo pharmacokinetic experiment, oral administration
Parameters: species or system Sprague Dawley rats
Condition summary: male, Sprague-Dawley, rat, plasma, po, 3 mg/kg, after oral administration, rats; read-out: terminal half-life (converted)
Assign half-life to each entry below.

The measured half-life associated with CC(C)Cc1ccc(-c2nc(-c3ccc(CN4CC(C(=O)O)C4)c(F)c3)no2)cc1 [Compound 2] reads < 330 min

The measured half-life associated with CC(C)Cc1ccc(-c2nc(-c3ccc(CN4CC(C(=O)O)C4)cc3)no2)cc1 [Compound 1, reference compound] reads ~660 min

The measured half-life associated with CC(C)Cc1ccc(-c2nc(-c3ccc(CN4CC(C(=O)O)C4)c(Cl)c3)no2)cc1 [Compound 3] reads < 330 min

The measured half-life associated with CC(C)Cc1ccc(-c2nc(-c3ccc(CN4CC(C(=O)O)C4)c(Br)c3)no2)cc1 [Compound 4] reads < 330 min

###

Test description: In vivo pharmacokinetic experiment, intravenous administration
Set-up: species or system Sprague Dawley rats
Condition summary: male, Sprague-Dawley, rat, plasma; intravenous administration (1 mg/kg), SD rats; read-out: T½ (converted)
Experimental: In this Example, the pharmacokinetic properties of compounds 1, 2, 3, 4 and 5 were evaluated via. i.v. and p.o. dosing to Sprague Dawley rats. […] The concentration of each compound in blood was measured by LC-MS/MS-001 (Q-trap-3200) with osalmide as internal standard material, as follows. […]
Assign half-life to each entry below.
State just the number; it will be interpreted in h.

The measured half-life associated with CC(C)Cc1ccc(-c2nc(-c3ccc(CN4CC(C(=O)O)C4)c(Cl)c3)no2)cc1 [Compound 3] reads 5.04

The measured half-life associated with CC(C)Cc1ccc(-c2nc(-c3ccc(CN4CC(C(=O)O)C4)c(Br)c3)no2)cc1 [Compound 4] reads 5.29

The measured half-life associated with CC(C)Cc1ccc(-c2nc(-c3ccc(CN4CC(C(=O)O)C4)c(F)c3)no2)cc1 [Compound 2] reads 5.47

The measured half-life associated with Cc1cc(-c2noc(-c3ccc(CC(C)C)cc3)n2)ccc1CN1CC(C(=O)O)C1 [Compound 5] reads 10.1

The measured half-life associated with CC(C)Cc1ccc(-c2nc(-c3ccc(CN4CC(C(=O)O)C4)cc3)no2)cc1 [Compound 1, reference compound] reads 8.69

###

Test description: In vivo pharmacokinetic experiment, intravenous administration
Design: species or system Sprague Dawley rats
Condition summary: male, Sprague-Dawley, rat, plasma; intravenous administration (1 mg/kg), SD rats
Measurement name: clearance (mL/min/kg)
State just the number; it will be interpreted in mL/min/kg.

The measured clearance associated with CC(C)Cc1ccc(-c2nc(-c3ccc(CN4CC(C(=O)O)C4)c(Br)c3)no2)cc1 reads 6.03

The measured clearance associated with Cc1cc(-c2noc(-c3ccc(CC(C)C)cc3)n2)ccc1CN1CC(C(=O)O)C1 reads 7.57

The measured clearance associated with CC(C)Cc1ccc(-c2nc(-c3ccc(CN4CC(C(=O)O)C4)c(F)c3)no2)cc1 reads 8.32

The measured clearance associated with CC(C)Cc1ccc(-c2nc(-c3ccc(CN4CC(C(=O)O)C4)cc3)no2)cc1 [Compound 1, reference compound] reads 7.12

The measured clearance associated with CC(C)Cc1ccc(-c2nc(-c3ccc(CN4CC(C(=O)O)C4)c(Cl)c3)no2)cc1 reads 6.1

###

Test description: In vivo pharmacokinetic experiment, intravenous administration
Set-up: species or system Sprague Dawley rats
Condition summary: male, Sprague-Dawley, rat, plasma; intravenous administration (1 mg/kg), SD rats
Measurement name: MRT inf (h)
State just the number; it will be interpreted in h.

The measured MRT inf associated with Cc1cc(-c2noc(-c3ccc(CC(C)C)cc3)n2)ccc1CN1CC(C(=O)O)C1 [Compound 5] reads 12.9

The measured MRT inf associated with CC(C)Cc1ccc(-c2nc(-c3ccc(CN4CC(C(=O)O)C4)c(Br)c3)no2)cc1 [Compound 4] reads 5.23

The measured MRT inf associated with CC(C)Cc1ccc(-c2nc(-c3ccc(CN4CC(C(=O)O)C4)cc3)no2)cc1 [Compound 1, reference compound] reads 11

The measured MRT inf associated with CC(C)Cc1ccc(-c2nc(-c3ccc(CN4CC(C(=O)O)C4)c(Cl)c3)no2)cc1 [Compound 3] reads 5.11

The measured MRT inf associated with CC(C)Cc1ccc(-c2nc(-c3ccc(CN4CC(C(=O)O)C4)c(F)c3)no2)cc1 [Compound 2] reads 6.28

###

Test description: In vivo pharmacokinetic experiment, oral administration
Parameters: species or system Sprague Dawley rats
Condition summary: male, Sprague-Dawley, rat, plasma; oral administration (3 mg/kg), SD rats
Measurement name: AUC(0-inf)
Remember to put the unit after the number in your answer.

The measured AUC(0-inf) associated with CC(C)Cc1ccc(-c2nc(-c3ccc(CN4CC(C(=O)O)C4)cc3)no2)cc1 [Compound 1, reference compound] reads 6200 ng·h/mL

The measured AUC(0-inf) associated with CC(C)Cc1ccc(-c2nc(-c3ccc(CN4CC(C(=O)O)C4)c(Br)c3)no2)cc1 reads 4420 ng·h/mL

The measured AUC(0-inf) associated with CC(C)Cc1ccc(-c2nc(-c3ccc(CN4CC(C(=O)O)C4)c(Cl)c3)no2)cc1 reads 8110 ng·h/mL

The measured AUC(0-inf) associated with CC(C)Cc1ccc(-c2nc(-c3ccc(CN4CC(C(=O)O)C4)c(F)c3)no2)cc1 reads 3830 ng·h/mL

The measured AUC(0-inf) associated with Cc1cc(-c2noc(-c3ccc(CC(C)C)cc3)n2)ccc1CN1CC(C(=O)O)C1 reads 5460 ng·h/mL

###

Assay target: human S1P1 (Homo sapiens, UniProt P21453)
Sequence (P21453 whole entry): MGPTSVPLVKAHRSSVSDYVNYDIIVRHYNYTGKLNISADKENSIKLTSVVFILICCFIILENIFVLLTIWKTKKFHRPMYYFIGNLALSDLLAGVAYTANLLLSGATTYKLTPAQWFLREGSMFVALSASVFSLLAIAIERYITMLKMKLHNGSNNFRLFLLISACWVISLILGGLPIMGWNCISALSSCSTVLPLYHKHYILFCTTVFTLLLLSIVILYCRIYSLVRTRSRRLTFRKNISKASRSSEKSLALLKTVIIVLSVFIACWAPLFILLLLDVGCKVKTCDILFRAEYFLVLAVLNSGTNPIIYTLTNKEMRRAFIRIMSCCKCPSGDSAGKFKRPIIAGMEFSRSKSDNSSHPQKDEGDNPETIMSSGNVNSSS
Test description: Internalization effect experiment on S1P1 (CHO-S cells, Myc tag, flow cytometry)
Condition summary: CHO-S cells expressing human S1P1, 1 hour at 37° C.; read-out: Receptor Internalization (EC50) S1P1
Assign EC50 to each entry below.
State just the number; it will be interpreted in nM.

The measured EC50 associated with CC(C)Cc1ccc(-c2nc(-c3ccc(CN4CC(C(=O)O)C4)c(Cl)c3)no2)cc1 reads 3.21

The measured EC50 associated with CC(C)Cc1ccc(-c2nc(-c3ccc(CN4CC(C(=O)O)C4)c(Br)c3)no2)cc1 reads 4.2

The measured EC50 associated with CC(C)Cc1ccc(-c2nc(-c3ccc(CN4CC(C(=O)O)C4)c(F)c3)no2)cc1 reads 9.83

The measured EC50 associated with CC(C)Cc1ccc(-c2nc(-c3ccc(CN4CC(C(=O)O)C4)cc3)no2)cc1 [Compound 1, reference compound] reads 5.69

###

Test description: In vivo pharmacokinetic experiment, intravenous administration
Design: species or system Sprague Dawley rats
Condition summary: male, Sprague-Dawley, rat, plasma; intravenous administration (1 mg/kg), SD rats
Measurement name: AUC(0-inf)
Remember to put the unit after the number in your answer.

The measured AUC(0-inf) associated with CC(C)Cc1ccc(-c2nc(-c3ccc(CN4CC(C(=O)O)C4)c(F)c3)no2)cc1 reads 2.01 µg·h/mL

The measured AUC(0-inf) associated with CC(C)Cc1ccc(-c2nc(-c3ccc(CN4CC(C(=O)O)C4)c(Br)c3)no2)cc1 reads 2.77 µg·h/mL

The measured AUC(0-inf) associated with Cc1cc(-c2noc(-c3ccc(CC(C)C)cc3)n2)ccc1CN1CC(C(=O)O)C1 reads 2.2 µg·h/mL

The measured AUC(0-inf) associated with CC(C)Cc1ccc(-c2nc(-c3ccc(CN4CC(C(=O)O)C4)c(Cl)c3)no2)cc1 reads 2.77 µg·h/mL

The measured AUC(0-inf) associated with CC(C)Cc1ccc(-c2nc(-c3ccc(CN4CC(C(=O)O)C4)cc3)no2)cc1 [Compound 1, reference compound] reads 2.38 µg·h/mL
